test system: HT-29; assay: Cytotoxicity against human HT-29 cells assessed as cell growth inhibition incubated for 48 hrs by MTT assay; format: functional, cell-based; settings: HT-29, 48 h
Property Measured: pIC50
Please keep in mind that pIC50 is minus log10 of the molar concentration; only the number is needed.

Use the examples below as a reference point.
Sample Smiles	Property Measured	Endpoint Value
Cc1ccc(C/N=C2\NC(=O)/C(=C3\CCNC(=O)c4[nH]c5ccccc5c43)S2)cc1	pIC50	4.96
O=C1N/C(=N\Cc2ccccc2)S/C1=C1/CCNC(=O)c2[nH]c3ccccc3c21	pIC50	4.50
COc1ccc(CC/N=C2\NC(=O)/C(=C3\CCNC(=O)c4[nH]c5ccccc5c43)S2)cc1	pIC50	4.82

Input: Supply recorded pIC50 for O=C1N/C(=N\Cc2ccccc2)S/C1=C1/CCNC(=O)c2[nH]ccc21 here.
Output: 4.44

Input: Dear colleague, please send me the reported pIC50 for O=C1N/C(=N\Cc2ccc(F)cc2)S/C1=C1/CCNC(=O)c2[nH]c3ccccc3c21 when you can.
Output: 4.42

Input: Assign pIC50 to the following record: Cc1ccc(C/N=C2\NC(=O)/C(=C3\CCNC(=O)c4[nH]ccc43)S2)cc1
Output: 5.17

Input: Report measured pIC50; entry is O=C1N/C(=N\Cc2ccc3c(c2)OCO3)S/C1=C1/CCNC(=O)c2[nH]ccc21
Output: 4.78

Input: Give me measured pIC50, please, for this compound: COc1ccc(C/N=C2\NC(=O)/C(=C3\CCNC(=O)c4c3ccn4C)S2)cc1
Output: 4.49
